# test system: FLJ13397 clone-derived protein (CARP) (Homo sapiens, UniProt Q9H8M7)
# Construct: A human full-length cDNA clone was expressed as a protein with an N-terminal His tag; His tag (pDEST17 Gateway vector) (N); made in house; host or cells: Escherichia coli BL21star(DE3)pLysS
# Sequence (Q9H8M7 1-445): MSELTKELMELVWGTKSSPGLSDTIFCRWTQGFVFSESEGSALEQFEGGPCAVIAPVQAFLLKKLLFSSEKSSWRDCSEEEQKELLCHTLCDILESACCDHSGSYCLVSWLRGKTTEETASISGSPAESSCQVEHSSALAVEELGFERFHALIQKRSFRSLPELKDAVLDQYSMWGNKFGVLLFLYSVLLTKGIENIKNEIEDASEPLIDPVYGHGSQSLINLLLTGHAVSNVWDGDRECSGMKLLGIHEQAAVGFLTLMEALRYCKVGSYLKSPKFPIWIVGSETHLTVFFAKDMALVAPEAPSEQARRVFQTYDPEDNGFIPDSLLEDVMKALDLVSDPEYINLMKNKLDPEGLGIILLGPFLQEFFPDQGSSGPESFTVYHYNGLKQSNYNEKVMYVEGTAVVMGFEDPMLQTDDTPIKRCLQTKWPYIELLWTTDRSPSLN
# test protocol: SEC/MS (size exclusion chromatography / mass analysis) interaction analysis between FLJ13397 clone-derived protein and compounds
# Format: binding
# condition notes: compound 10 μM; protein 23.75 μM
Counter-ions that a name gives are not always drawn.
property measured: spectrum intensity of the extracted mass range (compound in SEC spin column filtrate)

COc1ccc(CCN2CCC(Nc3nc4ccccc4n3Cc3ccc(F)cc3)CC2)cc1; 118520633
CC[C@@H](C(=O)[C@@H](C)[C@@H](O)[C@H](C)CCc1ccc(C)c(O)c1C(=O)O)[C@H]1O[C@](CC)([C@H]2CC[C@](O)(CC)[C@H](C)O2)C[C@@H]1C [Lasalocid sodium salt]; 20062681
CC(C)(C)c1ccc(C(O)CCCN2CCC(C(O)(c3ccccc3)c3ccccc3)CC2)cc1 (centres unmarked); 9434699
Oc1ccc(CCN2CCC(Nc3nc4ccccc4n3Cc3ccc(F)cc3)CC2)cc1; 12628724
Nc1nc2ccccc2[nH]1; 69826
